# target.entity: T1, mfNPR1-mFc:hANP complex (monkey; human, UniProt P01160 124-151)
# T1 construct: also called monkey NPR1 complexed to ANP
# protocol.summary: SPR, mAb captured, 37C
A collection of binders and their measured koff
Give a bare numeral; the unit s⁻¹ is implied.

mAb22035 (antibody, human IgG4, V domains shown) VH: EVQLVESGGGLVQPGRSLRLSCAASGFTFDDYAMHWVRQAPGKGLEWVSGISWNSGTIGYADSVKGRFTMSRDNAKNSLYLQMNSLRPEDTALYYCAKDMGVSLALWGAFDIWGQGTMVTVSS VL: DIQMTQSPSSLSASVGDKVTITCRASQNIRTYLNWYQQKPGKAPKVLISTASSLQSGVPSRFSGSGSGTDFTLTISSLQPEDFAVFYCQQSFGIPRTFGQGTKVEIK
7.7e-05
mAb25479 (antibody, human IgG4, V domains shown) VH: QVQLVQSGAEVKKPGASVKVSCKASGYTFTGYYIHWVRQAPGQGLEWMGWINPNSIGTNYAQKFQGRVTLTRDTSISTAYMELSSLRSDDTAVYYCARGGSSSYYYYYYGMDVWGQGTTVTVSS VL: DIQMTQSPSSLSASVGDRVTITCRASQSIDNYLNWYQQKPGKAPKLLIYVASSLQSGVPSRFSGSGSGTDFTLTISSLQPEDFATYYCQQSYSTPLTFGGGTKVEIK
0.000219
mAb25497 (antibody, human IgG4, V domains shown) VH: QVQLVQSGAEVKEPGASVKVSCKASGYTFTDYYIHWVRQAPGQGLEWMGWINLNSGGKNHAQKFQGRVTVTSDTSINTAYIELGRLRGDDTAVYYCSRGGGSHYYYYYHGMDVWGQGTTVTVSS VL: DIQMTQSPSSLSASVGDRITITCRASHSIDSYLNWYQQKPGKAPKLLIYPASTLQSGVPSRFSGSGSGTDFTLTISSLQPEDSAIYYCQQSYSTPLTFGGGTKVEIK
0.000152
mAb25502 (antibody, human IgG4, V domains shown) VH: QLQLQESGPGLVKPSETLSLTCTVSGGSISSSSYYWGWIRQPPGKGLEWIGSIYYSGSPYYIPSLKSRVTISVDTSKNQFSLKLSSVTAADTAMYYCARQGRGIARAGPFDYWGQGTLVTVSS VL: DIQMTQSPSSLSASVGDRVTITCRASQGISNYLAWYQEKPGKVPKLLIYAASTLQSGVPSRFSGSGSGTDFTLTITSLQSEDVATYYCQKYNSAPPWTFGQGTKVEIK
0.000524
mAb22809 (antibody, human IgG4, V domains shown) VH: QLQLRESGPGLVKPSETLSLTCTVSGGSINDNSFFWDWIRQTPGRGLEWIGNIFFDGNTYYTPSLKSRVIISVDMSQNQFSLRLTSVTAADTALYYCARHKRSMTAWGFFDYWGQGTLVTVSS VL: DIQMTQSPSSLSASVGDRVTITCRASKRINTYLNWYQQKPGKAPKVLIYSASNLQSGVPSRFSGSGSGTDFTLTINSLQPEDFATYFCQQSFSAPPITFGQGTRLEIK
0.000205

Moving on to another binder below.
Find the recorded koff belonging to mAb25508 (antibody, human IgG4, V domains shown) VH: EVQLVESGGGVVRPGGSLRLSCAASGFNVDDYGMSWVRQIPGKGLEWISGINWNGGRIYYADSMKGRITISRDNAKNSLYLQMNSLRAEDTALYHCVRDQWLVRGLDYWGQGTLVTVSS VL: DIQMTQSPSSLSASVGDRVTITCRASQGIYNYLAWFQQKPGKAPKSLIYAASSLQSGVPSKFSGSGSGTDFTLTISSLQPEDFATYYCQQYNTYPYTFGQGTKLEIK and report it. 0.000146

Source of measurements: patent US20240309103A1
